# test_protocol: chemical genetic growth profiling, strain panel (AID 1159580);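 note: tested at 20 µM; growth read once vehicle control cultures reached saturation at 30 °C; 1 = growth at the plate median or of vehicle wells; lower values mean less growth of the strain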
# experimental_parameters: S. cerevisiae deletion strains, growth OD, locus YGL078C, strain dbp3
Screen size: about 5,500 compounds; about 2,000 (36%) were called active. Roughly 18% stayed inconclusive and do not appear here. Cut-off read from the data, not from the text of the source: active = normalized growth mostly below about 0.91 (no sharp cut-off); inconclusive = no clear call, values can overlap the other calls; inactive = mostly above about 0.92. Some of the results follow.
Outcomes: T = active, F = inactive

>>> label_value("COc1ccc(-c2cc(=O)c3c(O)cc(O[C@H]4O[C@H](CO[C@@H]5O[C@@H](C)[C@H](O)[C@@H](O)[C@H]5O)[C@@H](O)[C@H](O)[C@H]4O)cc3o2)cc1")
"F"
>>> label_value("O=C(O[C@@H]1Cc2c(O)cc(O)cc2O[C@@H]1c1cc(O)c(=O)c2c(O)c(O)cc([C@H]3Oc4cc(O)cc(O)c4C[C@H]3O)c2c1)c1cc(O)c(O)c(O)c1")
"F"
>>> label_value("CC(C)c1c(O)ccc2c1CCC1[C@@](C)(C=O)CCC[C@]21C (some centres undefined)")
"T"
>>> label_value("COc1cc(OC)c2c(=O)c(OC)c(-c3ccc(OC)c(OC)c3)oc2c1")
"F"
>>> label_value("CC(C)c1c(O)ccc2c1CCC1[C@@](C)(CO)CCC[C@]21C (some centres undefined)")
"F"
>>> label_value("CC(=O)OC1CN2CCC1CC2 (centres undefined)")
"F"
>>> label_value("C[C@@H]1O[C@@H](OC[C@H]2OC(Oc3c(-c4ccc(OCCO)c(OCCO)c4)oc4cc(OCCO)cc(O)c4c3=O)[C@H](O)[C@@H](O)[C@@H]2O)[C@H](O)[C@H](O)[C@H]1O (some centres undefined)")
"F"
>>> label_value("COc1cc(O)c2c(=O)c(O)c(-c3ccc(O)c(O)c3)oc2c1")
"F"
>>> label_value("CNC(C)C(O)c1ccccc1 (centres undefined)")
"F"

###

Catalogue of compounds with associated normalized growth
# test_protocol: chemical genetic growth profiling, strain panel (AID 1159580);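 note: tested at 20 µM; growth read once vehicle control cultures reached saturation at 30 °C; 1 = growth at the plate median or of vehicle wells; lower values mean less growth of the strain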
# experimental_parameters: S. cerevisiae deletion strains, growth OD, locus YLR342W, strain FKS1, hits give low values
The whole screen tested about 5,500 compounds, of which about 2,000 (36%) were called active. About 18% were inconclusive and are not listed. The list shows a part of the results.
endpoint_name: normalized growth

>>> test_value("COC(=O)c1c(C)cc(O)cc1O")
1.01
>>> test_value("CC(C)c1c(O)c(-c2cc3c(c(C(C)C)c2O)CCC2C(C)(C)CCC[C@]32C)cc2c1CCC1C(C)(C)CCC[C@]21C (stereo partly specified)")
0.99
>>> test_value("CC(=O)OCC1=C(C(=O)O)N2C(=O)[C@@H](NC(=O)Cc3cccs3)[C@H]2SC1")
0.992
>>> test_value("CCCCCc1c2c(cc(O)c1C(=O)O)OC(=O)c1c(cc(OC)cc1C(=O)CCCC)O2")
0.981
>>> test_value("NS(=O)(=O)c1cc(C2(O)NC(=O)c3ccccc32)ccc1Cl (stereo unspecified)")
0.987
>>> test_value("CCC(=O)c1c(O)cc(O)cc1O")
0.978
>>> test_value("CCCCCC(=O)Cc1cc(O)cc(O)c1C(=O)Oc1cc(CC(=O)CCCCC)c(C(=O)O)c(OC)c1")
0.901
>>> test_value("CCOC(=O)c1c(C)cc(OC)cc1O")
0.984
>>> test_value("Cc1cc(OC(=O)c2c(C)cc(O)cc2O)cc(O)c1C(=O)O")
0.991
>>> test_value("NC(=O)CN1CCCC1=O")
0.98
>>> test_value("CCCC(C)(COC(N)=O)COC(=O)NC(C)C (stereo unspecified)")
1.02
